- TESTED_ON: CDK9/cyclin T1 (Homo sapiens)
- Sequence (O60563 whole entry): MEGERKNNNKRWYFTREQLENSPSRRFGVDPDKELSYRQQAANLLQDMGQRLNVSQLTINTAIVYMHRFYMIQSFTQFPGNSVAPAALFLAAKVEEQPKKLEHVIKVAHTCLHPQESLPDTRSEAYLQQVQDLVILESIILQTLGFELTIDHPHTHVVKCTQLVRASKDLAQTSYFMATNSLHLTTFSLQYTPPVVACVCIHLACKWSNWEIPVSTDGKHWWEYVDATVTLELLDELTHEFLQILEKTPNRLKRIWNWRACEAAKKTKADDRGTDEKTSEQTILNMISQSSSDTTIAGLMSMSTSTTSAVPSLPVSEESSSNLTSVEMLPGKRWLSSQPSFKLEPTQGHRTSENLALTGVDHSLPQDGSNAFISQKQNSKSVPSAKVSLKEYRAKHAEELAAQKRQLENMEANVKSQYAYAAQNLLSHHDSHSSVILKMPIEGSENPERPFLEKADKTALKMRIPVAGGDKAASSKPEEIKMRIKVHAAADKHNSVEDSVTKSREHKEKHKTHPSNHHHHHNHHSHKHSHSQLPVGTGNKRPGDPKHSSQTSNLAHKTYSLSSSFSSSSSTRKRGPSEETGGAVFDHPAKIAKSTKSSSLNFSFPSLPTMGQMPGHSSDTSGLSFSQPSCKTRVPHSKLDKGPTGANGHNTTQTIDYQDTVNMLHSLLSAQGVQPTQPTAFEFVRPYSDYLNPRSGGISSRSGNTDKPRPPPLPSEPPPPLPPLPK
- Sequence (P50750 whole entry): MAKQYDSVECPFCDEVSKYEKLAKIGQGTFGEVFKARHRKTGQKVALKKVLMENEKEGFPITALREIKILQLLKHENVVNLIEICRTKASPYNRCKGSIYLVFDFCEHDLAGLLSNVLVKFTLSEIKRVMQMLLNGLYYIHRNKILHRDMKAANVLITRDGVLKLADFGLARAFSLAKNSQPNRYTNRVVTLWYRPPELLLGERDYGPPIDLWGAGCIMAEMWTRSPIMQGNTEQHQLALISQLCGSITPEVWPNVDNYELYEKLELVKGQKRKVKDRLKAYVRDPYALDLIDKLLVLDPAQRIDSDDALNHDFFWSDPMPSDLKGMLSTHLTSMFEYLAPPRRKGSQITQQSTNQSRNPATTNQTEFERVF
- PROCEDURE_DETAILS: Inhibition of human CDK9/cyclin T in presence of ATP by ADP-glo luminescent assay
VALUE_KIND: IC50 (nM)

Check out these entries, answers already filled in.
CN1CC=C(c2c(O)cc(O)c3c(=O)cc(-c4ccc(Sc5nc6ccccc6n5C)cc4)oc23)CC1 :: 14
CN1CC=C(c2c(O)cc(O)c3c(=O)cc(-c4ccc(Sc5nc6ccccc6n5C)cc4Cl)oc23)CC1 :: 64

1: CN1CC=C(c2c(O)cc(O)c3c(=O)cc(-c4ccc(Sc5nc(-c6ccccc6)c[nH]5)cc4)oc23)CC1
2: CN1CC=C(c2c(O)cc(O)c3c(=O)cc(-c4ccc(Sc5nc6ccccc6[nH]5)cc4Cl)oc23)CC1
// compare measured IC50, left 1 , right 2 , return larger Answer = label. 2
(2: 15 nM, 1: 9 nM)
